# test.settings: in DMF, 303.2 K
readout.kind: solubility (mole fraction)
Lab note: record just the number, no unit beside it.

Note to self: solubility (mole fraction) recorded for "O=c1cc(-c2ccccc2)oc2cc(O)cc(O)c12" was 0.0152

###

# test.settings: in n-hexane, 308.2 K
readout.kind: solubility (mole fraction)
Lab note: record just the number, no unit beside it.

Note to self: solubility (mole fraction) recorded for "O=c1cc(-c2ccccc2)oc2cc(O)cc(O)c12" was 4.5e-07

###

# test.settings: in water, 328.2 K
readout.kind: solubility (mole fraction)
Lab note: record just the number, no unit beside it.

Note to self: solubility (mole fraction) recorded for "O=c1cc(-c2ccccc2)oc2cc(O)cc(O)c12" was 1.28e-07

###

# test.settings: in water, 333.2 K
readout.kind: solubility (mole fraction)
Lab note: record just the number, no unit beside it.

Note to self: solubility (mole fraction) recorded for "O=c1cc(-c2ccccc2)oc2cc(O)cc(O)c12" was 1.88e-07

###

# test.settings: in acetone, 298.2 K
readout.kind: solubility (mole fraction)
Lab note: record just the number, no unit beside it.

Note to self: solubility (mole fraction) recorded for "O=c1cc(-c2ccccc2)oc2cc(O)cc(O)c12" was 0.00143

###

# test.settings: in methanol, 293.2 K
readout.kind: solubility (mole fraction)

Note to self: solubility (mole fraction) recorded for "O=c1cc(-c2ccccc2)oc2cc(O)cc(O)c12" was 0.000226

###

# test.settings: in acetone, 323.2 K
readout.kind: solubility (mole fraction)
Lab note: record just the number, no unit beside it.

Note to self: solubility (mole fraction) recorded for "O=c1cc(-c2ccccc2)oc2cc(O)cc(O)c12" was 0.00243

###

# test.settings: in n-propanol, 298.2 K
readout.kind: solubility (mole fraction)
Lab note: record just the number, no unit beside it.

Note to self: solubility (mole fraction) recorded for "O=c1cc(-c2ccccc2)oc2cc(O)cc(O)c12" was 0.000569

###

# test.settings: in n-propanol, 313.2 K
readout.kind: solubility (mole fraction)

Note to self: solubility (mole fraction) recorded for "O=c1cc(-c2ccccc2)oc2cc(O)cc(O)c12" was 0.000971

###

# test.settings: in ethyl acetate, 308.2 K
readout.kind: solubility (mole fraction)
Lab note: record just the number, no unit beside it.

Note to self: solubility (mole fraction) recorded for "O=c1cc(-c2ccccc2)oc2cc(O)cc(O)c12" was 0.00101

###

# test.settings: in n-propanol, 328.2 K
readout.kind: solubility (mole fraction)
Lab note: record just the number, no unit beside it.

Note to self: solubility (mole fraction) recorded for "O=c1cc(-c2ccccc2)oc2cc(O)cc(O)c12" was 0.0017

###

# test.settings: in DMF, 328.2 K
readout.kind: solubility (mole fraction)
Lab note: record just the number, no unit beside it.

Note to self: solubility (mole fraction) recorded for "O=c1cc(-c2ccccc2)oc2cc(O)cc(O)c12" was 0.0479

###

# test.settings: in isopropanol, 298.2 K
readout.kind: solubility (mole fraction)
Lab note: record just the number, no unit beside it.

Note to self: solubility (mole fraction) recorded for "O=c1cc(-c2ccccc2)oc2cc(O)cc(O)c12" was 0.000614

###

# test.settings: in methanol, 303.2 K
readout.kind: solubility (mole fraction)

Note to self: solubility (mole fraction) recorded for "O=c1cc(-c2ccccc2)oc2cc(O)cc(O)c12" was 0.000299

Ref: BigSolDB 2.1
